Reference source for all entries: ChEMBL document CHEMBL3808320

Measured pKi, listed per entry for reference.
target_under_test: Synaptic vesicular amine transporter (Rattus norvegicus)
Sequence (Q01827 whole entry): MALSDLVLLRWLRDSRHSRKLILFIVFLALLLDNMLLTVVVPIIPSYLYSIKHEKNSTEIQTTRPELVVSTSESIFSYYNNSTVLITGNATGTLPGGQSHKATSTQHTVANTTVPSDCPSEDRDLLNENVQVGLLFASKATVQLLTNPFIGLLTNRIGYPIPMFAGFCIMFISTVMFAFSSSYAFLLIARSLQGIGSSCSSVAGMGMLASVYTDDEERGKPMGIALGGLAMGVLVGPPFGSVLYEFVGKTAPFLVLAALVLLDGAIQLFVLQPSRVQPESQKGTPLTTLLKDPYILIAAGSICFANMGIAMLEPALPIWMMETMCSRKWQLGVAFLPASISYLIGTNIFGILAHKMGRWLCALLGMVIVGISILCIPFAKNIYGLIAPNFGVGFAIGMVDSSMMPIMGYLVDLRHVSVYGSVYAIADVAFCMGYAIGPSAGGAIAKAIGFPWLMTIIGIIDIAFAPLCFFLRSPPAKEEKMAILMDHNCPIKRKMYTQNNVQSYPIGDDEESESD
protocol_description: Displacement of [3H]DTBZ from VMAT2 in rat whole brain vesicles homogenate after 30 mins by liquid scintillation counting
Assay type: tissue-based
Answer as the number alone; pKi is minus log10 of concentration in mol/L.

>>> recorded_number("COc1ccc(CCC2CCN(CCc3ccc(OC)cc3)CC2)cc1")
5.60
>>> recorded_number("COc1cccc(CCN2CCC(CCc3ccccc3)CC2)c1")
6.57

Turning now to a further molecule:
(Q) Any idea what its pKi is? The molecule is COc1ccc(CCN2CCC(Cc3ccccc3)CC2)cc1
(A) 5.72
